Provenance of the data: ChEMBL document CHEMBL4706703

# Experimental Protocol: Antioxidant activity assessed as trolox equivalent of AAPH radical scavenging activity measured every min for 90 mins by ORAC-FL assay
# Format: functional
Quick rule for you: Activity under 2 equiv gets 1, anything else gets -1.

CCN(CC)c1c(O)cccc1CC1OC(=O)c2cc(OC)c(OC)cc21 (stereo unspecified): -1
COc1cc2c(cc1OC)/C(=C/c1cccc(O)c1N1CCN(C)CC1)OC2=O: -1
COc1cc2c(cc1OC)/C(=C/c1ccc(N3CCCC3)c(O)c1)OC2=O: -1
COc1cc2c(cc1OC)C(Cc1cccc(O)c1N1CCCC1)OC2=O (stereo unspecified): 1
COc1cc2c(cc1OC)C(Cc1ccc(N3CCCC3)c(O)c1)OC2=O (stereo unspecified): -1
COc1cc2c(cc1OC)/C(=C/c1ccc(N3CCCCC3)c(O)c1)OC2=O: 1

Strictly below 2 equiv in Activity? COc1cc2c(cc1OC)/C(=C/c1cccc(O)c1N1CCCC1)OC2=O -1
